molecular target: T1, human LTBP3-proTGFβ1 complex (human, UniProt Q9NS15 44-1303; P01137 30-390, limits assumed); experiment: Octet BLI, IgG captured
T1 construct: Exemplary entries; also called Hu LTBP3-proTGFβ1; huLTBP3 proTGFb1
T1 sequence (Q9NS15 44-1303 limits assumed, chain 1 of 2): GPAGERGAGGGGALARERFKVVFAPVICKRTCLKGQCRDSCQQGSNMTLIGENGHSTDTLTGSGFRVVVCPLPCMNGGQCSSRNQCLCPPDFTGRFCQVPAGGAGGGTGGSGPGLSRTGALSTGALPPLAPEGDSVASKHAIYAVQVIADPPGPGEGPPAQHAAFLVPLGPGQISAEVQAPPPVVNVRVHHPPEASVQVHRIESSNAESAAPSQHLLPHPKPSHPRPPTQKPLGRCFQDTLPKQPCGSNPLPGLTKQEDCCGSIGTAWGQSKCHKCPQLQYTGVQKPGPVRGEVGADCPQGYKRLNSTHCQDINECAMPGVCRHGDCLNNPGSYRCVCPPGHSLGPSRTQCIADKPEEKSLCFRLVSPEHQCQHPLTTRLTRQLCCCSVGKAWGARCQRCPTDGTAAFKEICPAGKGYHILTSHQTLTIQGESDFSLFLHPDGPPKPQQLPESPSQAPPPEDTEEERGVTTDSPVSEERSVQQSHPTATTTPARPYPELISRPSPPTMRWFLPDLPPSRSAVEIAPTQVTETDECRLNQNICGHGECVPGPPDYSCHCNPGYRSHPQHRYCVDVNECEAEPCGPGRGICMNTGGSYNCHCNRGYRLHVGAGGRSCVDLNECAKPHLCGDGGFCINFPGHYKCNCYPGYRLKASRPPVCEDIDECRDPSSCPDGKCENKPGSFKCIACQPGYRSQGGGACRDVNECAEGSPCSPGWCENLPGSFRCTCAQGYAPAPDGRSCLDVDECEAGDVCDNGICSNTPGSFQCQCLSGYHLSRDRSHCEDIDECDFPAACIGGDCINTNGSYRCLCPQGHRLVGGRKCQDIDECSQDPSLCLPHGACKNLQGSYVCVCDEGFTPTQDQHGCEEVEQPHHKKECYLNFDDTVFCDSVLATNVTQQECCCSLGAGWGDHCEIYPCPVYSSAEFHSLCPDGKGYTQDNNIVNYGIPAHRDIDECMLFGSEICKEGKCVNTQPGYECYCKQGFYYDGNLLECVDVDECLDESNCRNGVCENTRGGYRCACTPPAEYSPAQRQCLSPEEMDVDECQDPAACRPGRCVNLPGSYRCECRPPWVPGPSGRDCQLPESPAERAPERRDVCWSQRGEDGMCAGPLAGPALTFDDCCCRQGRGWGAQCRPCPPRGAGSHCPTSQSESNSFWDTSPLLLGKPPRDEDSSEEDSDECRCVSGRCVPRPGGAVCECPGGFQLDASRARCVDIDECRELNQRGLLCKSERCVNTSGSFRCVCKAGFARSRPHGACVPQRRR
T1 sequence (P01137 30-390 limits assumed, chain 2 of 2): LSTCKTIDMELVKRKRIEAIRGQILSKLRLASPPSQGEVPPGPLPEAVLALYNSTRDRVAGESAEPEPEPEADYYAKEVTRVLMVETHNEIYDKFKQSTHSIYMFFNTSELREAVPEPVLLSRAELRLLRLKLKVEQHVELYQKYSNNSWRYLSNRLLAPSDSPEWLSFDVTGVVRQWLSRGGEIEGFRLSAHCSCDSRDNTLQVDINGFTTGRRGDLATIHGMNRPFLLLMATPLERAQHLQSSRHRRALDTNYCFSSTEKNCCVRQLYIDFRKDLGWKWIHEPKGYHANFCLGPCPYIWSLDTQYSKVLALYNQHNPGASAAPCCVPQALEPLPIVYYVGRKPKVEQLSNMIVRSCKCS
Parameter: pKd
Scale: negative log10 of molar concentration, which is what pKd denotes.

SR-AB44 (antibody, IgG1, V domains shown, Cycle 3, lineage SR-AB23) VH: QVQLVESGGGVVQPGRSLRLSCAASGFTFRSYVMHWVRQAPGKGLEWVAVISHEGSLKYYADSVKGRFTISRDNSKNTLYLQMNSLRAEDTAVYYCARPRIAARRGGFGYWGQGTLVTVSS VL: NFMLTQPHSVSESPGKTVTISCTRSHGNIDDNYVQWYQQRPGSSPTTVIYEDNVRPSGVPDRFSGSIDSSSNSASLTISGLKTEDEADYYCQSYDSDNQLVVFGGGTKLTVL ... 9.84

Look up pKd of SR-AB38 (antibody, IgG1, V domains shown, Cycle 3, lineage SR-AB22) VH: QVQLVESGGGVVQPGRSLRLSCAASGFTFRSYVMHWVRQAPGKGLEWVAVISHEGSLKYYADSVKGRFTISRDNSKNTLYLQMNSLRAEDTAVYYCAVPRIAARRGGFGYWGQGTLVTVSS VL: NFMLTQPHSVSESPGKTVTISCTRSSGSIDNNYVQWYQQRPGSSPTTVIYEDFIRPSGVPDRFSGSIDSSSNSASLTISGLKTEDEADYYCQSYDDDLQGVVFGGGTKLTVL and report it.
9.84
